Recorded melting point, one value per entry.
Where a name gives a salt, the structure may show the parent alone.

Reference set (3 entries):
> print(dat)
                                   compound        reading
1  Cc1ccc2c(c1)Nc1ccccc1N=C2N1CCN(C)[C@@H](CCc2ccccc2)C1   65 °C (dec.)
2  Cc1cc2c(s1)Nc1ccccc1N=C2N1CCN[C@@H](Cc2ccccc2)C1  169 to 170 °C
3  Cc1cc2c(s1)Nc1ccccc1N=C2N1CCN(C)[C@@H](CCc2ccc(F)cc2)C1 (as salt: hydrochloride) [Example 182, dihydrochloride]  253 °C (dec.)

Please list melting point recorded for the compound Cc1cc2c(s1)Nc1ccccc1N=C2N1CCN[C@@H](CCc2ccc(Cl)cc2)C1
91 °C (dec.)

Please list melting point recorded for the compound Cc1ccc2c(c1)Nc1ccccc1N=C2N1CCN(C)CC1
84 °C (dec.)

Please list melting point recorded for the compound Cc1cc2c(s1)Nc1ccccc1N=C2N1CCN(C)[C@@H](Cc2ccccc2)C1
94 to 97 °C

Please list melting point recorded for the compound CC(C)c1nc2c(s1)Nc1ccccc1N=C2N1CCN(C)[C@@H](CCc2cccc(F)c2)C1 (as salt: hydrochloride)
180 °C

Please list melting point recorded for the compound Cc1cc2c(s1)Nc1ccccc1N=C2N1CCN(C)[C@@H](Cc2ccsc2)C1
58 to 72 °C

Please list melting point recorded for the compound CN1CCN(C2=Nc3ccccc3Nc3ccc(C(F)(F)F)cc32)CC1
68 to 72 °C

Please list melting point recorded for the compound Cc1cccc(C[C@H]2CN(C3=Nc4ccccc4Nc4sc(C)cc43)CCN2)c1
80 to 97 °C

Please list melting point recorded for the compound Cc1cc2c(s1)Nc1ccccc1N=C2N1CCN[C@@H](CCc2ccccc2F)C1 (as salt: hydrochloride) [Example 178, dihydrochloride]
209 °C (dec.)

Please list melting point recorded for the compound Cc1cc2c(s1)Nc1ccccc1N=C2N1CCN(C)[C@@H](CCc2ccccc2)C1.Cl
225 °C

Please list melting point recorded for the compound Cc1cc2c(s1)Nc1ccccc1N=C2N1CCN[C@@H](CCc2ccccn2)C1 (as salt: hydrochloride)
220 to 224 °C (dec.)

The origin of these recorded values is patent US7214673B2.
